The following molecules are shown together with reported MIC values.
# System: C. krusei NCPF3876
# test description: microbe, parasite or virus in culture
# Format: cell-based, Candida krusei
# stated conditions: Pichia kudriavzevii, NCPF3876; Table 4, common panel; 24 hours, ≥50% inhibition; read-out: MIC C. krusei NCPF3876

- molecule: "OC(CN1CCCC(Nc2ccc(OCCN3CCOCC3)cc2)CC1)(Cn1cncn1)c1ccc(F)cc1F (stereo not shown) [Example 91]"
  comparison operator: "="
  MIC [µg/mL]: 2
- molecule: "OC(CN1CCC(N2CCC(Nc3ccccc3)CC2)CC1)(Cn1cncn1)c1ccc(F)cc1F (stereo not shown) [Example 14]"
  comparison operator: "="
  MIC [µg/mL]: 4
- molecule: "OC(CN1CCC(N2CCC(Nc3ccc(OCCN4CCOCC4)cc3)CC2)CC1)(Cn1cncn1)c1ccc(F)cc1F (stereo not shown) [Example 92]"
  comparison operator: ">"
  MIC [µg/mL]: 32
- molecule: "OC(CN1CCCN(c2ccc(OCCN3CCOCC3)cc2)CC1)(Cn1cncn1)c1ccc(F)cc1F (stereo not shown) [Example 89]"
  comparison operator: "="
  MIC [µg/mL]: 0.5
